method: PK absorption of CZ48 in dogs
Type: in vivo
reported conditions: Dog, 400 mg/kg based on API content
quantity measured: Cmax

Query: What value of Cmax has been recorded for this entry: CCC(=O)O[C@]1(CC)C(=O)OCc2c1cc1n(c2=O)Cc2cc3ccccc3nc2-1 [CZ48, camptothecin-20-O-propionate hydrate]
Reply: 3.4 ng/mL

====

method: PK absorption of CZ48 in dogs
Format: in vivo
reported conditions: Dog, 400 mg/kg based on API content
quantity measured: AUC0-24 (ng·h/mL)
Expressed in ng·h/mL, but write only the number.

Query: Record request: AUC0-24 value, item CCC(=O)O[C@]1(CC)C(=O)OCc2c1cc1n(c2=O)Cc2cc3ccccc3nc2-1 [CZ48, camptothecin-20-O-propionate hydrate]
Reply: 38.7

Origin of values: patent US9675609B2
